OBSERVABLE: IC50 (µM)
Numbers only; they are read as µM.

Request: # returns recorded IC50 (system: Voltage-gated inwardly rectifying potassium channel KCNH2 (Homo sapiens)) for `Cn1c(=O)n([C@H]2CCCOC2)c2c3cc(-c4ccc(OCCCN5CCCCC5)nc4)c(F)cc3ncc21`
Sequence (Q12809 whole entry): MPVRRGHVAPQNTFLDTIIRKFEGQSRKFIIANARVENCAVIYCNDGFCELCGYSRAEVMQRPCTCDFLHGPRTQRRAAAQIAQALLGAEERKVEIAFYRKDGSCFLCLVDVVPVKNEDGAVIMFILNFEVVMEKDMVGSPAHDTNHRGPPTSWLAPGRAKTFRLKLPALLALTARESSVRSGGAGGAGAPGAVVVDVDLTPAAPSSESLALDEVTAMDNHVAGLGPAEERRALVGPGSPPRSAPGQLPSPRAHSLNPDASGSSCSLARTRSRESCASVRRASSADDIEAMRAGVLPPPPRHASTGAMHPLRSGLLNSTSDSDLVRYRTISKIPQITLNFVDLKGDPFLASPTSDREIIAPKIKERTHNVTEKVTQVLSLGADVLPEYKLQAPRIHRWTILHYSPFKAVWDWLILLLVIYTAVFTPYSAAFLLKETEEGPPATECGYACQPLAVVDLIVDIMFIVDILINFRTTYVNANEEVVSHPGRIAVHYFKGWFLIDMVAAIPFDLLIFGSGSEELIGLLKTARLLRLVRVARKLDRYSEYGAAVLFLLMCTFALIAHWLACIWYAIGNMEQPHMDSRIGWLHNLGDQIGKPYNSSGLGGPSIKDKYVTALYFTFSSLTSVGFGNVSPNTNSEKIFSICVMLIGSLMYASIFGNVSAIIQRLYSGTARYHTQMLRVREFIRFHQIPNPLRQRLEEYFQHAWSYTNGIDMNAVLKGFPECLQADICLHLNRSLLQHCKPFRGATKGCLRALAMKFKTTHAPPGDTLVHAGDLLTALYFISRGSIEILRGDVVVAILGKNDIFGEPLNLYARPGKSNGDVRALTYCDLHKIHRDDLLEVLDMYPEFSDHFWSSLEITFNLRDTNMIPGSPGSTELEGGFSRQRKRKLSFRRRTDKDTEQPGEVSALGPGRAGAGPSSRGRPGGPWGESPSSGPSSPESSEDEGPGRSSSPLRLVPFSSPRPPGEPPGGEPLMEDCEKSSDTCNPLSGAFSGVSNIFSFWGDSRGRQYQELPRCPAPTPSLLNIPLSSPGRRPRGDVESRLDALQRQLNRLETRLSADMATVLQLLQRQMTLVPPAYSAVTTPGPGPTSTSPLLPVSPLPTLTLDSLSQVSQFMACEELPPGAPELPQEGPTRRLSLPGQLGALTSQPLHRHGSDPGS
Result: 18

Request: # returns recorded IC50 (system: Voltage-gated inwardly rectifying potassium channel KCNH2 (Homo sapiens)) for `COCc1ccc(-c2cc3c(cc2F)ncc2c3n([C@H]3C[C@@H](O)C3)c(=O)n2C)cn1`
Result: 15

Request: # returns recorded IC50 (system: Voltage-gated inwardly rectifying potassium channel KCNH2 (Homo sapiens)) for `Cn1c(=O)n(C2CCOCC2)c2c3cc(-c4cccnc4)ccc3ncc21`
Result: 11

Request: # returns recorded IC50 (system: Voltage-gated inwardly rectifying potassium channel KCNH2 (Homo sapiens)) for `CO[C@H]1C[C@@H](n2c(=O)n(C)c3cnc4cc(F)c(-c5ccc(CO)nc5)cc4c32)C1`
Result: 23

Request: # returns recorded IC50 (system: Voltage-gated inwardly rectifying potassium channel KCNH2 (Homo sapiens)) for `COCc1ccc(-c2cc3c(cc2F)ncc2c3n(C3CCOCC3)c(=O)n2C)cn1`
Result: 27

Request: # returns recorded IC50 (system: Voltage-gated inwardly rectifying potassium channel KCNH2 (Homo sapiens)) for `CO[C@H]1C[C@@H](n2c(=O)n(C)c3cnc4cc(F)c(-c5ccc(CS(C)(=O)=O)nc5)cc4c32)C1`
Result: 14

Request: # returns recorded IC50 (system: Voltage-gated inwardly rectifying potassium channel KCNH2 (Homo sapiens)) for `CO[C@H]1C[C@@H](n2c(=O)n(C)c3cnc4cc(F)c(-c5ccc(OCCCN(C)C)nc5F)cc4c32)C1`
Result: 22

Request: # returns recorded IC50 (system: Voltage-gated inwardly rectifying potassium channel KCNH2 (Homo sapiens)) for `CO[C@H]1C[C@@H](n2c(=O)n(C)c3cnc4ccc(-c5ccc(OCCCN6CCCCC6)nc5)cc4c32)C1`
Result: 14

----------
I'd appreciate it if you could supply IC50 values for the items below.
MEASUREMENT_TARGET: Serine/threonine-protein kinase ATR (Homo sapiens)
Sequence (Q13535 whole entry): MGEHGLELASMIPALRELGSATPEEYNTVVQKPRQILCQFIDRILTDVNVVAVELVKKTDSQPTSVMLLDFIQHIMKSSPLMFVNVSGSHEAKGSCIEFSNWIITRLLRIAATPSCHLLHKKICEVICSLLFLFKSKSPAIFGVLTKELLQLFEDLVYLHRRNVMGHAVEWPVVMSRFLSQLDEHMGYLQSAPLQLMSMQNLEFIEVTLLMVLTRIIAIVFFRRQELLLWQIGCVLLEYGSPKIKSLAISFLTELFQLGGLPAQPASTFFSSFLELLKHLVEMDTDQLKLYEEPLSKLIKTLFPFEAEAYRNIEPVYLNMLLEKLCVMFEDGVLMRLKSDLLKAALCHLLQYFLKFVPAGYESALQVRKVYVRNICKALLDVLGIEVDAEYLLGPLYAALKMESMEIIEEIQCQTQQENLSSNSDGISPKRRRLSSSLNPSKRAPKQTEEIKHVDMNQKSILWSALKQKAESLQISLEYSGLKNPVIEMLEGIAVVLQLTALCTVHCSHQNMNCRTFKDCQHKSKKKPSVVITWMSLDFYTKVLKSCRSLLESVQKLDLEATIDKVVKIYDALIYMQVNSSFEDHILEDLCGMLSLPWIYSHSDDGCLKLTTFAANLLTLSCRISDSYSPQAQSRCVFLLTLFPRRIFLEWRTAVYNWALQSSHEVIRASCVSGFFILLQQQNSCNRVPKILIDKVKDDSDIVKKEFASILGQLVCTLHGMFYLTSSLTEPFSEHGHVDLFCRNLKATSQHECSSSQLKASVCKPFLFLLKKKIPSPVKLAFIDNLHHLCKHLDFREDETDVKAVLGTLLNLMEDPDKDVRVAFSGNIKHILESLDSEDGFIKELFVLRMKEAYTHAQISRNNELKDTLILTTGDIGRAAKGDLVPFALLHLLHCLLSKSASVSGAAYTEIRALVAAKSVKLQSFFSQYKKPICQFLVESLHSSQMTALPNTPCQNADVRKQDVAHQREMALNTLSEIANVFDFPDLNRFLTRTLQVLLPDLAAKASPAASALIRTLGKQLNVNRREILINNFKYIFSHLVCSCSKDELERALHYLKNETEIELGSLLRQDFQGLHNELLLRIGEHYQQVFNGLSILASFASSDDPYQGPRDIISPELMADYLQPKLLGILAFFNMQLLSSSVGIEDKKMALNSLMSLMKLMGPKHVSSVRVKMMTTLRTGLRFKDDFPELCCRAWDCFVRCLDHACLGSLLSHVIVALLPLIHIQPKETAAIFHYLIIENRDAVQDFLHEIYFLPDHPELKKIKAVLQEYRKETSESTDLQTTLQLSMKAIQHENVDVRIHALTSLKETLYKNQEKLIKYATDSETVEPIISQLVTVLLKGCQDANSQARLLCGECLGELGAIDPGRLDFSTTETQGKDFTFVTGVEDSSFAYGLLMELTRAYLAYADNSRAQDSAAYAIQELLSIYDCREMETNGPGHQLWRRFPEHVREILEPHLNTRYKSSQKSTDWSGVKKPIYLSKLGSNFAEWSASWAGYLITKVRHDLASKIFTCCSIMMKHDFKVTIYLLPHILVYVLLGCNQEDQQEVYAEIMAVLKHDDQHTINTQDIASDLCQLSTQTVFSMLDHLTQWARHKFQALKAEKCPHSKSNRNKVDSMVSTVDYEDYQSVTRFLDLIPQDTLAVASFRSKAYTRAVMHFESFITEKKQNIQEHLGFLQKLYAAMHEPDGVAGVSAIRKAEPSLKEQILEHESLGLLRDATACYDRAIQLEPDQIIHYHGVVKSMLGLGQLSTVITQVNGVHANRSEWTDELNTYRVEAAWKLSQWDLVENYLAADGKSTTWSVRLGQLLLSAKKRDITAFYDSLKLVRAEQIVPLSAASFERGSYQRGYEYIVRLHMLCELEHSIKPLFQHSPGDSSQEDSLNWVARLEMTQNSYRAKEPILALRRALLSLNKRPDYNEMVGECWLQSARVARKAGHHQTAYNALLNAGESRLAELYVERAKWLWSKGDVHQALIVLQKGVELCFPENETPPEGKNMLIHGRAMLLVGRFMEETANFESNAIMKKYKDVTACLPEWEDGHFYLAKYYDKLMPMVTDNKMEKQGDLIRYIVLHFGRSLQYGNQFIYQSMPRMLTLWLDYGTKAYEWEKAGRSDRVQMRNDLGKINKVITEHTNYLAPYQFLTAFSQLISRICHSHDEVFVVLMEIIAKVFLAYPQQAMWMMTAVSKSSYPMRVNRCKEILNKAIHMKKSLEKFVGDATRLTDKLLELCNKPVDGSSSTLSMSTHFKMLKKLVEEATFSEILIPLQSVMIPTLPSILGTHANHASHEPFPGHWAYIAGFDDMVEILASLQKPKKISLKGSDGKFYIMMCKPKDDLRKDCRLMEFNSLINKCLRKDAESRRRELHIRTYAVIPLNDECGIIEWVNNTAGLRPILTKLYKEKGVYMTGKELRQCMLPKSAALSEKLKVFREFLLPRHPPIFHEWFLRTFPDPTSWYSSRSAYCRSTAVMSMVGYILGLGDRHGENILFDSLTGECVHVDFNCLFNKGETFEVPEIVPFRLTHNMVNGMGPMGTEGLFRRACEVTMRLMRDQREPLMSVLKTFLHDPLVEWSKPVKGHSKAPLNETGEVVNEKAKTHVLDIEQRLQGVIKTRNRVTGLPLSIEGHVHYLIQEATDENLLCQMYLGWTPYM

Request: Fill in the blank: the reported IC50 of `CCC(CC)CNc1c(C(N)=O)cnc2cc(F)c(-c3cnc(NCCN4CCCC4)nc3)cc12` is ____.
Result: > 30 µM

Request: Fill in the blank: the reported IC50 of `Cn1c(=O)n(C2CCOCC2)c2c3cc(-c4ccc(OCCC[N+](C)(C)[O-])nc4)ccc3ncc21` is ____.
Result: 10 µM

Request: Fill in the blank: the reported IC50 of `CO[C@H]1C[C@@H](n2c(=O)n(C)c3cnc4cc(F)c(-c5ccc(OCCN(C)C)nc5)cc4c32)C1` is ____.
Result: > 30 µM

Request: Fill in the blank: the reported IC50 of `CO[C@H]1C[C@@H](n2c(=O)n(C)c3cnc4cc(F)c(-c5ccc(N(C)CCN(C)C)nc5)cc4c32)C1` is ____.
Result: > 30 µM

Request: Fill in the blank: the reported IC50 of `CO[C@H]1C[C@@H](n2c(=O)n(C)c3cnc4ccc(-c5ccc(OCCCN6CCC6)nc5)cc4c32)C1` is ____.
Result: > 24 µM

Request: Fill in the blank: the reported IC50 of `CO[C@H]1C[C@@H](n2c(=O)n(C)c3cnc4ccc(-c5ccc(OCCCN(C)C)nc5)cc4c32)C1` is ____.
Result: > 30 µM

Request: Fill in the blank: the reported IC50 of `CO[C@H]1C[C@@H](n2c(=O)n(C)c3cnc4cc(F)c(-c5ccc(C(=O)NCCN(C)C)nc5)cc4c32)C1` is ____.
Result: > 30 µM

Request: Fill in the blank: the reported IC50 of `COCc1ccc(-c2cc3c(cc2F)ncc2c3n([C@H]3C[C@@H](OC)C3)c(=O)n2C)cn1` is ____.
Result: > 30 µM
